Study Target: Phosphatidylinositol 4,5-bisphosphate 3-kinase catalytic subunit delta isoform (Homo sapiens)
Sequence (O00329 whole entry, canonical isoform): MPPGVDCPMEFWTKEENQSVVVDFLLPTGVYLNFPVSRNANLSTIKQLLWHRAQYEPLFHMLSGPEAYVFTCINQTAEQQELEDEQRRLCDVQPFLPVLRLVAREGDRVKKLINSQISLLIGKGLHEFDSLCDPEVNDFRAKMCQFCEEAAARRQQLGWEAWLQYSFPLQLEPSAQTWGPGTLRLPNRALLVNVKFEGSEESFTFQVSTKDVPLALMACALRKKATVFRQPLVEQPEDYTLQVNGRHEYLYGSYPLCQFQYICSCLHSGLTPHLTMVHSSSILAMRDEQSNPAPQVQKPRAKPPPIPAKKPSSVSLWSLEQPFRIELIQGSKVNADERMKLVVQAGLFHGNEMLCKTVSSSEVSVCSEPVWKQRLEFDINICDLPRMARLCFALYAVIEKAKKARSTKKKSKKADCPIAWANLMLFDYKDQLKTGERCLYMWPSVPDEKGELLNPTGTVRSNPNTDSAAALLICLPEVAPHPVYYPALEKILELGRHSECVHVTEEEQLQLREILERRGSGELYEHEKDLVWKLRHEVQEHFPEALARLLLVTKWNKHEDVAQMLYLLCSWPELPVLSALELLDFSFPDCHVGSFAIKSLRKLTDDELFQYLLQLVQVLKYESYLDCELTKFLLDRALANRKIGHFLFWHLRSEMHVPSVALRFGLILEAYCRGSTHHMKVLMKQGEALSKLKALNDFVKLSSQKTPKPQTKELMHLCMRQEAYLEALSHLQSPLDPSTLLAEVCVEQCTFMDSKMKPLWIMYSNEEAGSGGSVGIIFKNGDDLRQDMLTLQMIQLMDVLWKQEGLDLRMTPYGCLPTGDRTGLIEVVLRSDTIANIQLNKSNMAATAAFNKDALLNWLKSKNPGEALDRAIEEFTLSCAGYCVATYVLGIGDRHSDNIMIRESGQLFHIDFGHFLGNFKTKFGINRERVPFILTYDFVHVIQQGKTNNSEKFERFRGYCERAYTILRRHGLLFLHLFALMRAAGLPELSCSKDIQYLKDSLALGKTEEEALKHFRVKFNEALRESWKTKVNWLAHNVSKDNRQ
Measurement Description: Inhibition of PI3Kdelta (unknown origin) using PIP2 as substrate measured after 1 hr by ADP-glo assay
pIC50: −log10 of the molar value.
Endpoint Name: pIC50

[
  {
    "Smiles String": "COc1ncc(-c2ccc3nccc(/C(C)=C/C(=O)N4CCN(C)CC4)c3c2)cc1NS(=O)(=O)c1ccc(F)cc1F",
    "Endpoint Name": "pIC50",
    "Experimental Result": 8.89
  }
]

====

Study Target: Serine/threonine-protein kinase mTOR (Homo sapiens, UniProt P42345)
Measurement Description: Inhibition of recombinant human N-terminal FLAG-tagged mTOR (1362 to end amino acids) using ULight-4E-BP1 as substrate incubated for 1 hr by LANCE Ultra assay
pIC50: −log10 of the molar value.

[
  {
    "Smiles String": "COc1ncc(-c2ccc3nccc(/C(C)=C/C(=O)N4CCN(C)CC4)c3c2)cc1NS(=O)(=O)c1ccc(F)cc1F",
    "pIC50": 8.30
  },
  {
    "Smiles String": "COc1ncc(-c2ccc3nccc(/C=C/C(=O)N4CCN(C)CC4)c3c2)cc1NS(=O)(=O)c1ccc(F)cc1F",
    "pIC50": 8.49
  },
  {
    "Smiles String": "COc1ncc(-c2ccc3nccc(/C(C)=C/C(=O)N4CCC(O)CC4)c3c2)cc1NS(=O)(=O)c1ccc(F)cc1F",
    "pIC50": 8.21
  },
  {
    "Smiles String": "COc1ncc(-c2ccc3nccc(/C(C)=C/C(=O)N4CCCC4)c3c2)cc1NS(=O)(=O)c1ccc(F)cc1F",
    "pIC50": 8.68
  },
  {
    "Smiles String": "COc1ncc(-c2ccc3nccc(/C(C)=C/C(=O)N4CCOCC4)c3c2)cc1NS(=O)(=O)c1ccc(F)cc1F",
    "pIC50": 8.48
  },
  {
    "Smiles String": "COc1ncc(-c2ccc3nccc(/C(C)=C\\C(=O)N4CCOCC4)c3c2)cc1NS(=O)(=O)c1ccc(F)cc1F",
    "pIC50": 6.85
  },
  {
    "Smiles String": "COc1ncc(-c2ccc3nccc(/C(C)=C/C(=O)N(C)CCO)c3c2)cc1NS(=O)(=O)c1ccc(F)cc1F",
    "pIC50": 8.77
  }
]

====

Reported values of MRT inf for individual entries
Measurement Description: MRT(0 to infinity) in Sprague-Dawley rat at 5 mg/kg, po
Assay type: ADME, organism-based
Settings: in vivo
Endpoint Name: MRT inf (h)

[
  {
    "Smiles String": "COc1ncc(-c2ccc3nccc(/C=C/C(=O)N4CCN(C)CC4)c3c2)cc1NS(=O)(=O)c1ccc(F)cc1F",
    "Endpoint Name": "MRT inf",
    "Experimental Result": 2.59
  },
  {
    "Smiles String": "COc1ncc(-c2ccc3nccc(/C(C)=C/C(=O)N4CCN(C)CC4)c3c2)cc1NS(=O)(=O)c1ccc(F)cc1F",
    "Endpoint Name": "MRT inf",
    "Experimental Result": 2.57
  }
]

====

Study Target: Phosphatidylinositol 4,5-bisphosphate 3-kinase catalytic subunit gamma isoform (Homo sapiens, UniProt P48736)
Sequence (P48736 whole entry, canonical isoform): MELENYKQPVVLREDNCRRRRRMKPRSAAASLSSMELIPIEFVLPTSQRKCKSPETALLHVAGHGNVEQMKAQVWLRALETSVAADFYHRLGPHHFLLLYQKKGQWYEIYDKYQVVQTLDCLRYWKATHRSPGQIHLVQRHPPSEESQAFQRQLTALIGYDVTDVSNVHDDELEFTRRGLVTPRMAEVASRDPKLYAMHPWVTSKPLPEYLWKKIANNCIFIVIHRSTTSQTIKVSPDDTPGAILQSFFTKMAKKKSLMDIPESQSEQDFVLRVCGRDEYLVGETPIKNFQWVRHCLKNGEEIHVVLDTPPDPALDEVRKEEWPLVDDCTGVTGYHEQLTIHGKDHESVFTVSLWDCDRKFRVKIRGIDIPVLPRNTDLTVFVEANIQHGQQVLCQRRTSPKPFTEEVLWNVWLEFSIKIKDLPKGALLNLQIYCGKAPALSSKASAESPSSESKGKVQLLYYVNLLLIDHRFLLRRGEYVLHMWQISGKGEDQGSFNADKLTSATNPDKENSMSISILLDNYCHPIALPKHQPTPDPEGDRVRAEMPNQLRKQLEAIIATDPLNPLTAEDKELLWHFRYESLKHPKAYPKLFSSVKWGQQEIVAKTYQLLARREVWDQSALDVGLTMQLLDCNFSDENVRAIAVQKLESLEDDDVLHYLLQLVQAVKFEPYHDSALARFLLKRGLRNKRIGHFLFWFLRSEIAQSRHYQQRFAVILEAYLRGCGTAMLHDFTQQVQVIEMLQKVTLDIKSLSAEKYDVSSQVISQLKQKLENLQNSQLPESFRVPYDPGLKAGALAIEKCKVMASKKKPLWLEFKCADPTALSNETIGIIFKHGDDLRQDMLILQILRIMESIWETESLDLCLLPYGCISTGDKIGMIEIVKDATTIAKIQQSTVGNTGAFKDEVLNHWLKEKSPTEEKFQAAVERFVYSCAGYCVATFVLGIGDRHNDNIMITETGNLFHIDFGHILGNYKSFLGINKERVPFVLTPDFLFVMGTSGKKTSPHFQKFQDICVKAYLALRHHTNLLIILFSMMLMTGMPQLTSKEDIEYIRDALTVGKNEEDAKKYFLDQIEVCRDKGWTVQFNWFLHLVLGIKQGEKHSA
Measurement Description: Inhibition of recombinant human full-length His-tagged PI3Kgamma expressed in baculovirus expression system using PIP2 as substrate measured after 1 hr by ADP-glo assay
pIC50: −log10 of the molar value.
Endpoint Name: pIC50

[
  {
    "Smiles String": "COc1ncc(-c2ccc3nccc(/C(C)=C/C(=O)N4CCN(C)CC4)c3c2)cc1NS(=O)(=O)c1ccc(F)cc1F",
    "Endpoint Name": "pIC50",
    "Experimental Result": 8.89
  }
]
